Below, each entry is listed with its recorded pIC50.
Biological target: human alpha2A receptors (Homo sapiens, UniProt P08913)
Sequence (P08913 whole entry): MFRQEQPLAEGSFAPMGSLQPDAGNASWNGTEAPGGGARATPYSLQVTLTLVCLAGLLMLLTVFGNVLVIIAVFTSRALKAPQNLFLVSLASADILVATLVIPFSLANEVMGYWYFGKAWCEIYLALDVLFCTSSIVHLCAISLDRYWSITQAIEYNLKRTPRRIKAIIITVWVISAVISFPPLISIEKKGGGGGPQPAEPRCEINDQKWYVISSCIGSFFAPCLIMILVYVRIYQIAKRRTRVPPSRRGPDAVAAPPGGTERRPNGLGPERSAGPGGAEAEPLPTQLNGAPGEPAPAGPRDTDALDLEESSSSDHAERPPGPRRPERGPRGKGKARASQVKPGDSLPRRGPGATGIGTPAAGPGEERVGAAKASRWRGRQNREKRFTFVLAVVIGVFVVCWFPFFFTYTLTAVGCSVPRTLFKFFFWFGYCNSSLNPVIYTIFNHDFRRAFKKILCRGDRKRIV
Conditions: read-out: Alpha 2A Adrenaline IC50; antagonism, cells stimulated with adrenaline; CHO cells stably transfected with human alpha2A, cotransfected with Gα16; intracellular calcium
pIC50: −log10 of the molar value.
Measured property: pIC50

Compound	Measured property	Val
O=C1NCCCN1[C@H]1CCCN(C[C@H]2COc3ccccc3O2)C1	pIC50	< 5.00
CC1CCN([C@H]2CCCN(C[C@H]3COc4ccccc4O3)C2)C1=O (single isomer, unassigned; diastereomer 2)	pIC50	< 5.00

###

Biological target: UniProt:P18825
Sequence (P18825 1-462): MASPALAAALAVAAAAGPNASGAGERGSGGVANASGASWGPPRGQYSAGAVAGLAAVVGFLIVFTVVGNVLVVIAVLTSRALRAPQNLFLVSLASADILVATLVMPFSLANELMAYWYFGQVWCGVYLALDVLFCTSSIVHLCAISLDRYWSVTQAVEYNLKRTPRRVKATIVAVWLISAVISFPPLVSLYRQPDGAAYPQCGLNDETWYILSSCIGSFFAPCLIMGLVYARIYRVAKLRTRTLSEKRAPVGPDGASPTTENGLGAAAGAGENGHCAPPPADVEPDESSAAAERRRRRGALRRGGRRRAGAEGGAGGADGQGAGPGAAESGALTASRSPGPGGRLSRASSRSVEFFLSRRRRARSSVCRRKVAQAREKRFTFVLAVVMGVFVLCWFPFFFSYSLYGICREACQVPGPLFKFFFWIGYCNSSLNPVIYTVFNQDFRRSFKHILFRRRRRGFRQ
Assay: Determination of alpha2C antagonistic activity in vitro (FLIPR calcium assay)
Measured property: IC50 (nM)

Cpd smiles	Qualifier	Val
CCc1nc2cccnc2n1[C@H]1CCCN(C[C@H]2COc3ccccc3O2)C1	=	0.01
CN1C(=O)C(=O)N([C@H]2CCCN(C[C@H]3COc4ccccc4O3)C2)C1=O	=	4.35
CCc1nc2ccc(F)cc2n1[C@H]1CCCN(C[C@H]2COc3ccccc3O2)C1	<	0.1
O=C1NC(c2ccccc2)(c2ccccc2)CN1[C@H]1CCCN(C[C@H]2COc3ccccc3O2)C1	<	0.1
O=C1C(=O)N([C@H]2CCCN(C[C@H]3COc4ccccc4O3)C2)C(=O)N1C1CCCCC1	=	0.01
CC(C)N1C(=O)N([C@H]2CCCN(C[C@H]3COc4ccccc4O3)C2)C[C@H]1c1ccccc1	=	672
COCc1nc2ccccc2n1[C@H]1CCCN(C[C@H]2COc3ccccc3O2)C1	<	0.1
O=c1n(-c2ccccc2)c2ccccc2n1[C@H]1CCCN(C[C@H]2COc3ccccc3O2)C1	=	3220
